TM Shift LIMK2 (K) by entry:
Target: LIMK2KD (Homo sapiens, UniProt P53671)
Construct: The cDNA coding for LIMK2 residues 330 to 632 was PCR amplified; His6 (N, cleaved yes); made in house; host or cells: baculovirus; Sf9 for virus, TriEx insect cells for expression
Sequence (P53671 330-632): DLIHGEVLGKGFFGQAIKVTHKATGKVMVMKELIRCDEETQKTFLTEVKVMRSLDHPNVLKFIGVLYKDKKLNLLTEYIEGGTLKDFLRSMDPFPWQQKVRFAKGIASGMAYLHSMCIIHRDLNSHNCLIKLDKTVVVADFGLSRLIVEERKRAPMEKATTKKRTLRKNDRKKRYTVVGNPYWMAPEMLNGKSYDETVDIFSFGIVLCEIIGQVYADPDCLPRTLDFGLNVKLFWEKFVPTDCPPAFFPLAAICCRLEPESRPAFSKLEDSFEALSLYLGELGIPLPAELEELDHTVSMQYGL
Assay: Differential (dynamic) scanning fluorimetry (DSF) assay, LIMK2KD
Type: binding
Settings: LIMK2KD, compound 10 µM, single shot
Response body: numeric value in K, unit text excluded.

Use the examples below as a reference point.
{"molecule": "Nc1nccc(-c2c(-c3ccc(F)cc3)ncn2C2CCCCC2)n1 [PF-670462]", "tgt": "LIMK2KD (Homo sapiens, UniProt P53671)", "assay.endpoint": "TM Shift LIMK2 (K)", "meas.value": -0.2}
{"molecule": "COc1ccc(F)c(F)c1C(=O)c1cnc(NC2CCN(S(C)(=O)=O)CC2)nc1N [R547]", "tgt": "LIMK2KD (Homo sapiens, UniProt P53671)", "assay.endpoint": "TM Shift LIMK2 (K)", "meas.value": -0.2}
{"molecule": "C=CC(=O)Nc1ccc2ncnc(Nc3cccc(Br)c3)c2c1 [PD168393]", "tgt": "LIMK2KD (Homo sapiens, UniProt P53671)", "assay.endpoint": "TM Shift LIMK2 (K)", "meas.value": 2.0}

Here is another molecule to look at.
Ask: Query: TM Shift LIMK2 (K); subject: COc1cc2ncnc(Nc3ccc(O)c(Br)c3)c2cc1OC [WHI-P154]
Reply: -0.2

---

Target: LIMK2KD (Homo sapiens)
Construct: The cDNA coding for LIMK2 residues 330 to 632 was PCR amplified; His6 (N, cleaved yes); made in house; host or cells: baculovirus; Sf9 for virus, TriEx insect cells for expression
Experiment: Differential (dynamic) scanning fluorimetry (DSF) assay, LIMK2KD
Assay type: binding
Conditions: LIMK2KD, compound 10 µM, single shot; read-out: TM Shift LIMK2 (K)
assay.endpoint: ΔTm at 10 µM (°C)
Response body: numeric value in °C, unit text excluded.

Use the examples below as a reference point.
{"test.smiles": "O=C(O)[C@]1(Cc2cccc(Nc3nccs3)n2)CC[C@@H](Oc2cccc(Cl)c2F)CC1", "tgt": "LIMK2KD (Homo sapiens)", "ΔTm at 10 µM / °C": 0.9}
{"test.smiles": "Cc1cc(Nc2cc(N3CCN(C)CC3)nc(Sc3ccc(NC(=O)C4CC4)cc3)n2)[nH]n1", "tgt": "LIMK2KD (Homo sapiens)", "ΔTm at 10 µM / °C": 0}

Ask: // lookup ΔTm at 10 µM | system=LIMK2KD (Homo sapiens) | key= CO[C@@H]1[C@H](N(C)C(=O)c2ccccc2)C[C@H]2O[C@]1(C)n1c3ccccc3c3c4c(c5c6ccccc6n2c5c31)C(=O)NC4
Reply: 0

---

Molecular target: LIMK2KD (Homo sapiens)
Construct: The cDNA coding for LIMK2 residues 330 to 632 was PCR amplified; His6 (N, cleaved yes); made in house; host or cells: baculovirus; Sf9 for virus, TriEx insect cells for expression
Test: Differential (dynamic) scanning fluorimetry (DSF) assay, LIMK2KD
Format: binding
Settings: LIMK2KD, compound 10 µM, single shot; read-out: TM Shift LIMK2 (K)
Label rule, in plain words: ΔTm at 10 µM of 0.6 °C and up is Criterion met, under 0.6 °C is Criterion not met.

Solved cases below.
{"compound": "Cc1cc2c(F)c(Oc3ncnn4cc(OC[C@@H](C)OC(=O)[C@H](C)N)c(C)c34)ccc2[nH]1 [Brivanib Alaninate (BMS-582664), Brivanib Alaninate]", "classification": "Criterion not met"}
{"compound": "CC1(C)CNc2cc(NC(=O)c3cccnc3NCc3ccncc3)ccc21 [Motesanib Diphosphate (AMG-706), Motesanib Diphosphate]", "classification": "Criterion not met"}
{"compound": "N#CC[C@H](C1CCCC1)n1cc(-c2ncnc3[nH]ccc23)cn1 [Ruxolitinib (INCB018424), Ruxolitinib]", "classification": "Criterion met"}
{"compound": "CCc1nc(-c2cccc(C)c2)c(-c2ccnc(NC(=O)c3ccccc3)c2)s1 [TAK-715]", "classification": "Criterion met"}
{"compound": "CC1=C(C(=O)Nc2cc3cn[nH]c3cc2F)C(c2ccc(C(F)(F)F)cc2)CC(=O)N1 (centres unmarked) [GSK429286A]", "classification": "Criterion met"}

Ask: Say whether COc1ccc(Cl)c(Nc2nc3ccccc3nc2NS(=O)(=O)c2cccc(NC(=O)C(C)(C)N)c2)c1 [Pilaralisib] shows ΔTm at 10 µM of 0.6 °C or more.
Reply: Criterion not met

Ask: Now give it for Cc1ccc(NC(=O)c2ccc(CN3CC[C@H](N(C)C)C3)c(C(F)(F)F)c2)cc1Nc1nccc(-c2cncnc2)n1 [Bafetinib] too.
Reply: Criterion met

---

Biological target: LIMK1KD (Homo sapiens)
Construct: His6 (N, cleaved yes); made in house; host or cells: baculovirus; Sf9 for virus, TriEx insect cells for expression
Experiment: Differential (dynamic) scanning fluorimetry (DSF) assay, LIMK1KD
Format: binding
Details: 2 µM LIMK1KD, compound 10 µM, single shot; read-out: TM Shift LIMK1 (K)
assay.endpoint: ΔTm at 10 µM
Answer format reminder: number followed by unit.

Use the examples below as a reference point.
{"compound": "CCOc1ccn(-c2ccc(F)cc2)c(=O)c1C(=O)Nc1ccc(Oc2ccnc(N)c2Cl)c(F)c1 [BMS-777607]", "meas.value": "3.8 °C"}
{"compound": "CCc1cc2c(cc1N1CCC(N3CCOCC3)CC1)C(C)(C)c1[nH]c3cc(C#N)ccc3c1C2=O [Alectinib (CH5424802), Alectinib]", "meas.value": "-1.6 °C"}
{"compound": "COc1cc2ncnc(Nc3ccc(F)c(Cl)c3)c2cc1OCCCN1CCOCC1 [Gefitinib (ZD1839), Gefitinib]", "meas.value": "-0.6 °C"}
{"compound": "CCc1cnn2c(NCc3ccc[n+]([O-])c3)cc(N3CCCC[C@H]3CCO)nc12 [Dinaciclib (SCH727965), Dinaciclib]", "meas.value": "-0.3 °C"}
{"compound": "C[C@@H]1CN(CC(=O)Nc2ccc3c(c2)Cc2cccc(-c4cc(=O)cc(N5CCOCC5)o4)c2S3)C[C@H](C)O1 [KU-60019]", "meas.value": "0.5 °C"}

Ask: Query: ΔTm at 10 µM; subject: CN(C)Cc1cccc(N/C(=C2\C(=O)Nc3cc(C(N)=O)ccc32)c2ccccc2)c1 [BIX 02188]
Reply: 1.7 °C

Ask: Now give it for C[C@H](NC(=O)/C(C#N)=C/c1cccc(Br)n1)c1ccccc1 [WP1066] too.
Reply: -0.3 °C

Ask: Now give it for Cn1cnc(N)c2ncnc1-2 [3-Methyladenine] too.
Reply: 0.4 °C

Ask: Now give it for COc1ccc(-c2ccc3c(N4CCOCC4)nc(N4C[C@@H](C)O[C@@H](C)C4)nc3n2)cc1CO [KU-0063794] too.
Reply: 0.3 °C

Ask: Now give it for COC(=O)c1ccc2c(c1)NC(=O)/C2=C(\Nc1ccc(N(C)C(=O)CN2CCN(C)CC2)cc1)c1ccccc1 [Nintedanib] too.
Reply: 1.3 °C

Ask: Now give it for Cc1cc([C@@H](C)Nc2ccccc2C(=O)O)c2nc(N3CCOCC3)cc(=O)n2c1 [AZD6482] too.
Reply: 0.7 °C

Ask: Now give it for O=C(O)c1ccc(Nc2ncc3c(n2)-c2ccc(Cl)cc2C(c2c(F)cccc2F)=NC3)cc1 [MLN8054] too.
Reply: -0.4 °C

---

Molecular target: LIMK1KD (Homo sapiens, UniProt P53667)
Construct: His6 (N, cleaved yes); made in house; host or cells: baculovirus; Sf9 for virus, TriEx insect cells for expression
Sequence (P53667 330-637): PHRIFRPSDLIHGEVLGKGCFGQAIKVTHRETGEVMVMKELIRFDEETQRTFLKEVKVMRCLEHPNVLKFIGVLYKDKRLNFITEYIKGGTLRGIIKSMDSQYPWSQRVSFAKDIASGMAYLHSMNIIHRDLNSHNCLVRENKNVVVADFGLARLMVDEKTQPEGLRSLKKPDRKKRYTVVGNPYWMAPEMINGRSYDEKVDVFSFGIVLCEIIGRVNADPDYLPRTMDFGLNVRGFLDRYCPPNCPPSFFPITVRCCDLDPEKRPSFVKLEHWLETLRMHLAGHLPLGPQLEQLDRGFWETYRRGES
Assay: Differential (dynamic) scanning fluorimetry (DSF) assay, LIMK1KD
Format: binding
Settings: 2 µM LIMK1KD, compound 10 µM, single shot; read-out: TM Shift LIMK1 (K)
ΔTm at 10 µM by entry:
Response body: numeric value in °C, unit text excluded.

{"molecule": "CN(C)CCOc1ccc(-c2nc(-c3ccncc3)c(-c3ccc4c(c3)CC/C4=N\\O)[nH]2)cc1", "readout.units": "°C", "ΔTm at 10 µM": 0.1}
{"molecule": "O=C(Nc1ccc2[nH]nc(-c3ccncc3)c2c1)[C@@H]1CCN(CC(=O)N2CCN(c3ccc(-c4ncccn4)cc3)CC2)C1", "readout.units": "°C", "ΔTm at 10 µM": 0.3}

Ask: // lookup ΔTm at 10 µM | system=LIMK1KD (Homo sapiens, UniProt P53667) | key= Cc1[nH]c(/C=C2\C(=O)Nc3ccccc32)c(C)c1CCC(=O)O [Orantinib]
Reply: 1.9

---

Target: LIMK2KD (Homo sapiens)
Construct: The cDNA coding for LIMK2 residues 330 to 632 was PCR amplified; His6 (N, cleaved yes); made in house; host or cells: baculovirus; Sf9 for virus, TriEx insect cells for expression
Assay: Differential (dynamic) scanning fluorimetry (DSF) assay, LIMK2KD
Format: binding
Details: LIMK2KD, compound 10 µM, single shot
assay.endpoint: TM Shift LIMK2 (K)
Response body: numeric value in K, unit text excluded.

{"molecule": "N#C/C(=C(/N)Sc1ccc(N)cc1)c1ccccc1C(F)(F)F [SL-327]", "tgt": "LIMK2KD (Homo sapiens)", "assay.endpoint": "TM Shift LIMK2 (K)", "readout.units": "K", "meas.value": 0.7}
{"molecule": "CNC(=O)c1c(F)cccc1Nc1nc(Nc2cc3c(cc2OC)CCN3C(=O)CN(C)C)nc2[nH]ccc12 [GSK1838705A]", "tgt": "LIMK2KD (Homo sapiens)", "assay.endpoint": "TM Shift LIMK2 (K)", "readout.units": "K", "meas.value": 1.0}
{"molecule": "CCc1cc(Nc2nccc(-c3c(-c4ccc(OC)c(C(=O)Nc5c(F)cccc5F)c4)nc4ccccn34)n2)c(OC)cc1N1CCC(N2CCN(S(C)(=O)=O)CC2)CC1 [GSK1904529A]", "tgt": "LIMK2KD (Homo sapiens)", "assay.endpoint": "TM Shift LIMK2 (K)", "readout.units": "K", "meas.value": 0.7}
{"molecule": "CN(C)c1ccc(-c2nc3ncc(Cl)c(N4CCN(CC(=O)Nc5nccs5)CC4)c3[nH]2)cc1 [CCT129202]", "tgt": "LIMK2KD (Homo sapiens)", "assay.endpoint": "TM Shift LIMK2 (K)", "readout.units": "K", "meas.value": 4.6}

Ask: Query: TM Shift LIMK2 (K); subject: N#C/C(=C\c1ccc(O)c(O)c1)C(=O)NCc1ccccc1 [AG-490 (Tyrphostin B42), Tyrphostin B42]
Reply: 0.9

Ask: Now give it for Nc1ccc(C(=O)Nc2cccc(-c3nc(N4CCOCC4)c4oc5ncccc5c4n3)c2)cn1 [YM201636] too.
Reply: 3.8

Ask: Now give it for COc1ccc(-c2cc3c(C)nc(N)nc3n([C@H]3CC[C@H](OCCO)CC3)c2=O)cn1 [PF-04691502] too.
Reply: 0.6

Ask: Now give it for COc1c(C)c(C(=O)c2ccc(N)c(C(=O)[O-])c2)n2ccccc12.[Na+] [SSR128129E] too.
Reply: 2.4
